Entry source: ChEMBL document CHEMBL5291721

A set of compounds tested on Muscarinic acetylcholine receptor M2 (Homo sapiens), with measured AC50:
metricName: AC50

>  <compound>
Cc1c(O)cccc1C(=O)N[C@@H](CSc1ccccc1)[C@H](O)CN1C[C@H]2CCCC[C@H]2C[C@H]1C(=O)NC(C)(C)C

>  <metricName>
AC50

>  <assayValue>
> 30 µM

$$$$
>  <compound>
CC1(C)O[C@@H]2C[C@H]3[C@@H]4C[C@H](F)C5=CC(=O)CC[C@]5(C)[C@H]4[C@@H](O)C[C@]3(C)[C@]2(C(=O)CO)O1 [FLURANDRENOLIDE]

>  <metricName>
AC50

>  <assayValue>
> 30 µM

$$$$
>  <compound>
Oc1ncnc2[nH]ncc12 [ALLOPURINOL]

>  <metricName>
AC50

>  <assayValue>
> 30 µM

$$$$
>  <compound>
Nc1nc(N)c2nc(-c3ccccc3)c(N)nc2n1

>  <metricName>
AC50

>  <assayValue>
> 30 µM

$$$$
>  <compound>
CO[C@@]12[C@H](COC(N)=O)C3=C(C(=O)C(C)=C(N)C3=O)N1C[C@@H]1N[C@@H]12 [MITOMYCIN]

>  <metricName>
AC50

>  <assayValue>
> 30 µM

$$$$
